Field: pIC50. System: Methionine aminopeptidase 2 (Homo sapiens, UniProt P50579). Provenance: assorted publications.
Sequence (P50579 whole entry, species assumed): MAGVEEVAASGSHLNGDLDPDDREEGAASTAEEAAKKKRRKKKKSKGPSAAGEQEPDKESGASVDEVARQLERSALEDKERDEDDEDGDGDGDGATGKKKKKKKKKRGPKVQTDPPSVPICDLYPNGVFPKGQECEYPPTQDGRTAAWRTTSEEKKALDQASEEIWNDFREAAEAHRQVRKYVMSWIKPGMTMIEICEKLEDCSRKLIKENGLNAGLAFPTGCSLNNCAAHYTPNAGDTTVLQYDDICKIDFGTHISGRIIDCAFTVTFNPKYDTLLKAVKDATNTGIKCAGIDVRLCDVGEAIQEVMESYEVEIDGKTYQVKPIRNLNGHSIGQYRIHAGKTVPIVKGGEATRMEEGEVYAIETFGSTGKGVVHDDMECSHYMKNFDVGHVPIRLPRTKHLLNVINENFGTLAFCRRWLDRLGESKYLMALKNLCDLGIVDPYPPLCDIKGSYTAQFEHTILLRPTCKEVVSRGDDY
pIC50: −log10 of the molar value.
Metric name: pIC50

- Compound: "O=C(NCc1cc(Cl)ccc1F)[C@@]1(O)CCN(c2ccccc2)C1=O"
  Metric name: "pIC50"
  Result: "6.00 to 8.00"
- Compound: "COc1ccc2cccc(OC[C@H]3CCCN3c3ncnc4[nH]cnc34)c2c1"
  Metric name: "pIC50"
  Result: "6.00 to 8.00"
- Compound: "CCS(=O)(=O)NC1CCCC(N2CCC(O)(C(=O)NCc3cc(F)cc(Cl)c3)C2=O)C1 (centres unmarked)"
  Metric name: "pIC50"
  Result: "5.00 to 6.00"
- Compound: "Cn1cncc1CN1CCC(O)(C(=O)NCc2cc(F)cc(Cl)c2)C1=O (centres unmarked)"
  Metric name: "pIC50"
  Result: "5.00 to 6.00"
- Compound: "CCCCCNC(=O)c1cc(OC[C@H]2CCCN2c2ncnc3[nH]cnc23)c2ccccc2n1"
  Metric name: "pIC50"
  Result: "6.00 to 8.00"
- Compound: "O=C1CCc2cc(N3CC[C@](O)(C(=O)NCc4cccc(F)c4)C3=O)ccc2N1"
  Metric name: "pIC50"
  Result: "6.00 to 8.00"
- Compound: "O=C1N(CC2CCCCC2)CCC[C@@]1(O)CNCc1cc(F)cc(Cl)c1"
  Metric name: "pIC50"
  Result: "< 5.00"
- Compound: "Cc1nc2cc(N3CCC(O)(C(=O)NCc4cc(F)cc(Cl)c4)C3=O)cnc2[nH]1 (centres unmarked)"
  Metric name: "pIC50"
  Result: "6.00 to 8.00"
- Compound: "CC(=O)Nc1ccc(N2CCC(O)(C(=O)NCc3cc(F)cc(F)c3)C2=O)cn1 (centres unmarked)"
  Metric name: "pIC50"
  Result: "6.00 to 8.00"
- Compound: "O=C1OCCC1CCn1cnc2c(N3CCC[C@@H]3COc3cccc4ccc(O)cc34)ncnc21 (some centres unmarked)"
  Metric name: "pIC50"
  Result: "5.00 to 6.00"
- Compound: "CC(=O)NC1CCN(C2CCc3cccc(OC[C@H]4CCCN4c4ncnc5[nH]cnc45)c3C2)C1 (some centres unmarked)"
  Metric name: "pIC50"
  Result: "5.00 to 6.00"
- Compound: "O=C(NCc1cccc(Br)c1)[C@@]1(O)CCN(c2cccc3ccccc23)C1=O"
  Metric name: "pIC50"
  Result: "6.00 to 8.00"
- Compound: "FC(F)(F)Oc1ccc2nccc(OC[C@H]3CCCN3c3ncnc4[nH]cnc34)c2c1"
  Metric name: "pIC50"
  Result: "6.00 to 8.00"
- Compound: "O=C(NCc1cc(F)cc(Cl)c1)C1(O)CCN(c2ccc(N3CCOCC3)nc2)C1=O (centres unmarked)"
  Metric name: "pIC50"
  Result: "6.00 to 8.00"
- Compound: "O=C1CCc2cc(N3CC[C@](O)(C(=O)NCc4ccc(F)cc4Cl)C3=O)ccc2N1"
  Metric name: "pIC50"
  Result: "6.00 to 8.00"
- Compound: "c1ccc(CN2CCN(c3ccc4cccc(OC[C@H]5CCCN5c5ncnc6[nH]cnc56)c4c3)CC2)cc1"
  Metric name: "pIC50"
  Result: "< 5.00"
- Compound: "O=C(NCCc1cccs1)[C@@]1(O)CCN(c2ccc(F)c(Cl)c2)C1=O"
  Metric name: "pIC50"
  Result: "6.00 to 8.00"
- Compound: "CC(C)(C)OC(=O)N[C@H](CC#N)C(=O)N1CCc2cccc(OC[C@H]3CCCN3c3ccnc4ncnn34)c2C1"
  Metric name: "pIC50"
  Result: "6.00 to 8.00"
- Compound: "O=C(NCCc1ccccc1F)C1(O)CCN(c2ccc3[nH]ccc3c2)C1=O (centres unmarked)"
  Metric name: "pIC50"
  Result: "6.00 to 8.00"
- Compound: "O=C(NCc1cc(F)cc(Cl)c1)C1(O)CCN([C@H]2[C@@H]3CNC[C@@H]32)C1=O (some centres unmarked)"
  Metric name: "pIC50"
  Result: "< 5.00"
- Compound: "O=C(NCc1cccc(Br)c1)[C@]1(Cl)CCN(c2ccccc2)C1=O"
  Metric name: "pIC50"
  Result: "< 5.00"
- Compound: "O=C(NCc1cc(F)cc(Cl)c1)[C@]1(O)CCN(c2ccc3cc[nH]c3c2)C1=O"
  Metric name: "pIC50"
  Result: "< 5.00"
- Compound: "O=C1CCc2cc(N3CC[C@](O)(C(=O)NCc4cc(Cl)c(F)cc4F)C3=O)ccc2N1"
  Metric name: "pIC50"
  Result: "6.00 to 8.00"
- Compound: "NC(=O)c1cccc(N2CCC(O)(C(=O)NCCc3ccccc3F)C2=O)c1 (centres unmarked)"
  Metric name: "pIC50"
  Result: "6.00 to 8.00"
- Compound: "CCOC(=O)[C@H]1CC[C@H](N2CCC(O)(C(=O)NCc3cc(F)cc(Cl)c3)C2=O)CC1 (some centres unmarked)"
  Metric name: "pIC50"
  Result: "5.00 to 6.00"
- Compound: "O=C(NCc1cc(F)cc(Cl)c1)[C@@]1(O)CCN(OCc2ccccc2)C1=O"
  Metric name: "pIC50"
  Result: "6.00 to 8.00"
- Compound: "O=C(NCc1cc(F)cc(Cl)c1)C1(O)CCN([C@H]2CC[C@H](C(=O)O)CC2)C1=O (some centres unmarked)"
  Metric name: "pIC50"
  Result: "5.00 to 6.00"
- Compound: "N#CCCCCN1CCc2cccc(OC[C@H]3CCCN3c3ccnc4ncnn34)c2C1"
  Metric name: "pIC50"
  Result: "6.00 to 8.00"
- Compound: "CN(C)C(=O)C[C@H]1CCc2c(OC[C@H]3CCCN3c3ncnc4[nH]cnc34)cccc2C1=O"
  Metric name: "pIC50"
  Result: "6.00 to 8.00"
- Compound: "CC(C)(C)OC(=O)N1C[C@@H]2[C@H](C1)[C@H]2N1CCC(O)(C(=O)NCc2cc(F)cc(Cl)c2)C1=O (some centres unmarked)"
  Metric name: "pIC50"
  Result: "5.00 to 6.00"
- Compound: "O=C1CCc2cc(N3CC[C@](O)(C(=O)NCc4c(F)ccc(Cl)c4F)C3=O)ccc2N1"
  Metric name: "pIC50"
  Result: "6.00 to 8.00"
- Compound: "O=C(NCc1cccc(Br)c1)[C@@]1(O)CCN(c2ccccc2)C1=O"
  Metric name: "pIC50"
  Result: "6.00 to 8.00"
- Compound: "CCOC(=O)CCCCn1cnc2c(N3CCC[C@@H]3COc3cccc4ccc(O)cc34)ncnc21"
  Metric name: "pIC50"
  Result: "< 5.00"
- Compound: "c1cc2c(c(OC[C@H]3CCCN3c3ncnc4[nH]cnc34)c1)CNCC2"
  Metric name: "pIC50"
  Result: "6.00 to 8.00"
- Compound: "O=C1CCc2cc(NC(=O)C3CCN(c4ccc5c(c4)CCC(=O)N5)C3=O)ccc2N1 (centres unmarked)"
  Metric name: "pIC50"
  Result: "< 5.00"
